targetOfAssay: serotonin transporter (Rattus norvegicus, UniProt P31652)
Construct: displace ^3H-paroxetine from male rat frontal cortical membranes; from tissue; host or cells: male rat frontal cortex membranes
Sequence (P31652 whole entry): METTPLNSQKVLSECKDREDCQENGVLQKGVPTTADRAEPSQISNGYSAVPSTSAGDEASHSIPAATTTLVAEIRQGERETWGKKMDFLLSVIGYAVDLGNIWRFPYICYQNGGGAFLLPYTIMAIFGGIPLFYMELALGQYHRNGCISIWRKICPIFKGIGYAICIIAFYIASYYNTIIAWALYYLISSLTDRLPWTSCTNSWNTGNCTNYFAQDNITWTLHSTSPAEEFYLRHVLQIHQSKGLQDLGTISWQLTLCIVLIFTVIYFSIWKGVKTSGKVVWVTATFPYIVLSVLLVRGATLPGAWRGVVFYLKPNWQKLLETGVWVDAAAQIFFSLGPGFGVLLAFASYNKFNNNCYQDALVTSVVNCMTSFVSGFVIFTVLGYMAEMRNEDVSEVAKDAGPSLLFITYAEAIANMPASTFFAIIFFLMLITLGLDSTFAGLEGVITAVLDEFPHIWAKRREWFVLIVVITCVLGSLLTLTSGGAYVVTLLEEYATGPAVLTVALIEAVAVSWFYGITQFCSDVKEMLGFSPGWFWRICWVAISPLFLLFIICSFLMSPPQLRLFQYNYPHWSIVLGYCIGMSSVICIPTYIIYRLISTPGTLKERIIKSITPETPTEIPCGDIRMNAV
testProtocol: 3H-paroxetine displacement from rat frontal cortical membranes (serotonin transporter affinity)
Format: binding
Consider the following compounds and their measured Ki readings.
Note: unit nM is implicit; provide only the numeric part.

Entry COc1cccc2c1OC(CN1CC=C(c3c[nH]c4ccc(F)cc34)CC1)CC2 (stereo not shown) has what Ki?
9.5

Please look up its Ki: Fc1ccc2[nH]cc(C3=CCN(CC4CCc5ccccc5O4)CC3)c2c1 (stereo not shown)
4.84

Any idea what its Ki is? The compound is C1=C(c2c[nH]c3ccccc23)CCN(CC2CCc3ccccc3O2)C1 (stereo not shown)
1.18

Looking for the measured Ki of COc1cccc2c1OC(CN1CC=C(c3c[nH]c4ccccc34)CC1)C=C2 (stereo not shown) , can you help?
9.5

Bench note: what Ki did COc1cccc2c1OC(CN1CC=C(c3c[nH]c4ccc(F)cc34)CC1)C=C2 (stereo not shown) show?
20

Further cases:
I'd like to know its Ki. The compound in question is Fc1ccc2c(C3=CCN(CC4CCc5ccccc5O4)CC3)c[nH]c2c1 (stereo not shown)
0.34

Name the reported Ki value associated with the compound COc1cccc2c1OC(CN1CC=C(c3c[nH]c4cc(F)ccc34)CC1)CC2 (stereo not shown)
8.5

---

Listed here: items and their measured Emax.
targetOfAssay: cloned human 5-HT1A receptors (Homo sapiens)
Construct: expressed in transfected cells
Sequence (P08908 whole entry): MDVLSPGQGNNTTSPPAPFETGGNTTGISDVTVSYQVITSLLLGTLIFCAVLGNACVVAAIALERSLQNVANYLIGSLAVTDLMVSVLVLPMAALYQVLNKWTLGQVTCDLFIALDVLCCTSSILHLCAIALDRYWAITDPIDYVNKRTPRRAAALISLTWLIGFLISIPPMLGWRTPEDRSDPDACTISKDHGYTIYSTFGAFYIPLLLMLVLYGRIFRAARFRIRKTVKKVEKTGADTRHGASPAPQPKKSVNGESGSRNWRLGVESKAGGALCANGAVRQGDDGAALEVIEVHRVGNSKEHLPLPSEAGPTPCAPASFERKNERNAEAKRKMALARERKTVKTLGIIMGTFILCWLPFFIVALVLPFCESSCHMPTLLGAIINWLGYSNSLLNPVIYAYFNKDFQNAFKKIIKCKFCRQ
testProtocol: 35S-GTPγS binding assay, agonist activity at 5-HT1A receptors
Format: biochemical
experimentalConditions: read-out: 5-HT1A Function (Emax)
The reply should be a number in %, with the unit left off.

Previously resolved entries follow.
Name the reported Emax value associated with the compound COc1cccc2c1OC(CN1CC=C(c3c[nH]c4ccccc34)CC1)C=C2 (stereo not shown) [Example 9]
67

Any idea what Emax was measured for COc1cccc2c1OC(CN1CC=C(c3c[nH]c4ccc(F)cc34)CC1)C=C2 (stereo not shown) [Example 8] ?
60

Reported Emax, compound Fc1ccc2c(C3=CCN(CC4CCc5ccccc5O4)CC3)c[nH]c2c1 (stereo not shown) [Example 6] : ____
100

Next:
// query Emax value for entry C1=C(c2c[nH]c3ccccc23)CCN(CC2CCc3ccccc3O2)C1 (stereo not shown) [Example 2]
50

Need Emax, item COc1cccc2c1OC(CN1CC=C(c3c[nH]c4ccc(F)cc34)CC1)CC2 (stereo not shown) [Example 4]
92

Which Emax value is on record for Fc1ccc2[nH]cc(C3=CCN(CC4CCc5ccccc5O4)CC3)c2c1 (stereo not shown) [Example 3] ?
83

Query: Emax; subject: COc1cccc2c1OC(CN1CC=C(c3c[nH]c4cc(F)ccc34)CC1)CC2 (stereo not shown) [Example 7]
64

---

Entries and their pKi
targetOfAssay: human 5-HT1A receptors (Homo sapiens)
Construct: expressed in transfected cells; host or cells: CHO cells
Sequence (P08908 whole entry): as the sequence (P08908 whole entry) above
testProtocol: [3H] 8-OHDPAT displacement from 5-HT1A receptor in transfected CHO cells
Format: binding
# pKi: negative log10 of molar concentration; output just the value

Sample answers from the record:
Quick one: pKi for COc1cccc2c1OC(CN1CC=C(c3c[nH]c4cc(F)ccc34)CC1)CC2 (stereo not drawn) ?
7.35

Record request: pKi value, item COc1cccc2c1OC(CN1CC=C(c3c[nH]c4ccc(F)cc34)CC1)CC2 (stereo not drawn)
7.46

As a next step, examine the compound that follows.
Fill in: pKi of COc1cccc2c1OC(CN1CC=C(c3c[nH]c4ccccc34)CC1)C=C2 (stereo not drawn) is ___
7.02
